Biological target: Rap guanine nucleotide exchange factor 3 (Homo sapiens)
Assay: Confirmatory qHTS for agonist of cAMP-regulated guanine nucleotide exchange factor 3 (EPAC1) (AID 1645881);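 also: EPAC1 catalysed release of BODIPY-GDP from Rap1B seen as fluorescence loss; nearly all actives have a fitted effect of over 75% in size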
Conditions: EPAC1 Rap1B BODIPY-GDP exchange fluorescence; series mostly up to 154 µM
Inconclusive results are not listed. The source made the active and inactive calls. Calls follow the shape of the dose curve; as a rule, active = well fitted activation curve with a large enough effect; inconclusive = small, poorly fitted or top-dose-only effect; inactive = no such curve, though single readings can be large or run the other way.
Quantity Kind: outcome

> print(dat)
                               record.smiles  quantity.kind  recorded.value
 1  CCN(CC)CCn1c2c(c(SCC(=O)NCc3ccccc3)nc1=O)CCCC2        outcome        inactive
 2          COc1cc(C)cc(C(=O)C=Cc2ccccc2)c1O        outcome        inactive
 3  COc1ccccc1NC(=O)COC(=O)c1ccc([N+](=O)[O-])s1        outcome        inactive
 4              Cc1ccc(-c2csc(N=C(N)N)n2)cc1        outcome        inactive
 5  Cc1ccc(N(Cc2cccs2)C(=O)c2ccccc2[N+](=O)[O-])cc1        outcome        inactive
 6  Cc1cc(C)cc(NC(=O)c2sc3nc(-c4ccccc4)cn3c2C)c1        outcome        inactive
 7  COc1cccc(NC(=O)CCNC(=O)Cn2ccc3ccccc3c2=O)c1        outcome        inactive
 8  C=CCSc1nc(-c2ccc(OC)cc2)c(C#N)c(=O)n1CC=C        outcome        inactive
 9  C[C@@H](c1ccccc1)N1Cc2ccccc2Oc2cc(Br)ccc2S1(=O)=O        outcome        inactive
10  Cc1cc(C)cc(NC(=O)N2CCC(CN3CCc4ccccc4C3)CC2)c1        outcome        inactive
11  COc1ccc(C)cc1NC(=O)CSc1nc(=O)n(Cc2ccco2)c2c1CCC2        outcome        inactive
